- systemName: F876L mutant Androgen Receptor (AR-F876L) (Homo sapiens, UniProt P10275, F877L)
- Construct: expressed in transfected cells; host or cells: LNCaP (LNCaP F876L)
- Sequence (P10275 1-920 F877L): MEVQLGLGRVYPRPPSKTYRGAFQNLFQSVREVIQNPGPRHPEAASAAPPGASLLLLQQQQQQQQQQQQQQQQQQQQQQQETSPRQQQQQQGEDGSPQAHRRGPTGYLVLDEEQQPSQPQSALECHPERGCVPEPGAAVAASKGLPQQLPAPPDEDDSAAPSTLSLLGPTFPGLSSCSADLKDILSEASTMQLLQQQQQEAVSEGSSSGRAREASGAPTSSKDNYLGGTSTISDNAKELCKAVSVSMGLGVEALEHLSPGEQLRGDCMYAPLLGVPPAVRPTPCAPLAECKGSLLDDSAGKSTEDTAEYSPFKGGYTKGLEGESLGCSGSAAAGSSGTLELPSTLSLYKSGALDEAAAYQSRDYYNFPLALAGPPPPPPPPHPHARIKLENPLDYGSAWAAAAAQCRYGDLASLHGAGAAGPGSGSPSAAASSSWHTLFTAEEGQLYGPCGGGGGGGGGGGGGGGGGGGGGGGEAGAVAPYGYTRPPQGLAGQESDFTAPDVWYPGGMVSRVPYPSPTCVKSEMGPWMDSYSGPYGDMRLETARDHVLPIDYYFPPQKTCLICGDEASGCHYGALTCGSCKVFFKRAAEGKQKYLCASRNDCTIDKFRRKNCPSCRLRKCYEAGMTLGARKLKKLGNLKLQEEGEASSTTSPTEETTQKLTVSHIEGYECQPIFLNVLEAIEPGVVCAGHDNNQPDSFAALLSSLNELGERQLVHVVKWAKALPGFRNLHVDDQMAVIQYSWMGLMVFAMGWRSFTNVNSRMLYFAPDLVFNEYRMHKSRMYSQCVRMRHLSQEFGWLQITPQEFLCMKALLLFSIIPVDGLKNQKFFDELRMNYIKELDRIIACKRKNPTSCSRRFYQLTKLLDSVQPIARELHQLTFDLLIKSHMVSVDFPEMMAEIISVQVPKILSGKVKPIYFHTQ
- procedureDetails: LNCaP-AR-F876L AG reporter assay (ARE firefly luciferase, agonist mode)
- Type: cell-based
- measurementConditions: maximum % stimulation (agonist response) over tested concentration range; read-out: LNCaP-AR-F876L AG MAX % Stim
measuredEndpoint: Emax (%)

# Emax lookup, item `N#Cc1ncc(N2C(=O)C3(CCC3)N(c3ccc(C(=O)NCc4ccc(Cl)cc4)c(F)c3)C2=S)cc1C(F)(F)F`
0.5

[1] Cc1cc(N2C(=O)C3(CCC3)N(c3ccc(OC4CCN(CCO)CC4)cc3)C2=S)cnc1C#N
[2] COCCOc1ccc(N2C(=S)N(c3cnc(C#N)c(C)c3)C(=O)C23CCC3)cc1F
Looking at recorded values for Emax, does 1 or 2 come in lower? Write down the label attached to your selection.
1
(1: 0.7%, 2: 1.7%)
